test-name: activity coefficient (dimensionless); of the first substance listed, at infinite dilution; xn = mol fraction of the nth substance listed
run-conditions: 343.15 K; Liquid; Chromatography; x1 = 0
measured-metric: activity coefficient

- compound: "CC(C)CO [2-methyl-1-propanol] + CN(C)c1cc[n+](COCCCOC[n+]2ccc(N(C)C)cc2)cc1.O=S(=O)([N-]S(=O)(=O)C(F)(F)F)C(F)(F)F.O=S(=O)([N-]S(=O)(=O)C(F)(F)F)C(F)(F)F"
  reported-value: 1.5
- compound: "Cc1ccccc1 [toluene] + CCCCCCCCn1cc[n+](COCCC)c1C.O=S(=O)([N-]S(=O)(=O)C(F)(F)F)C(F)(F)F"
  reported-value: 0.77
- compound: "ClCCl [dichloromethane] + CCCCCCCCn1cc[n+](COCCCOC[n+]2ccn(CCCCCCCC)c2C)c1C.O=S(=O)([N-]S(=O)(=O)C(F)(F)F)C(F)(F)F.O=S(=O)([N-]S(=O)(=O)C(F)(F)F)C(F)(F)F"
  reported-value: 0.32
- compound: "Cc1ccccc1 [toluene] + N#C[N-]C#N.N#C[N-]C#N.c1ccc(Cn2cc[n+](COCCCOC[n+]3ccn(Cc4ccccc4)c3)c2)cc1"
  reported-value: 4.8
- compound: "C[N+](=O)[O-] [nitromethane] + CCCCCCCCn1cc[n+](COCCC)c1C.N#C[N-]C#N"
  reported-value: 0.63
- compound: "ClC(Cl)Cl [trichloromethane] + CCCCCCCCn1cc[n+](COCCC)c1C.O=S(=O)([N-]S(=O)(=O)C(F)(F)F)C(F)(F)F"
  reported-value: 0.53
